The reported measurements were obtained from PubChem BioAssay AID602292.

- subject of test: Thyrotropin receptor (Homo sapiens) (UniProt P16473)
- Sequence (P16473 whole entry, looked up): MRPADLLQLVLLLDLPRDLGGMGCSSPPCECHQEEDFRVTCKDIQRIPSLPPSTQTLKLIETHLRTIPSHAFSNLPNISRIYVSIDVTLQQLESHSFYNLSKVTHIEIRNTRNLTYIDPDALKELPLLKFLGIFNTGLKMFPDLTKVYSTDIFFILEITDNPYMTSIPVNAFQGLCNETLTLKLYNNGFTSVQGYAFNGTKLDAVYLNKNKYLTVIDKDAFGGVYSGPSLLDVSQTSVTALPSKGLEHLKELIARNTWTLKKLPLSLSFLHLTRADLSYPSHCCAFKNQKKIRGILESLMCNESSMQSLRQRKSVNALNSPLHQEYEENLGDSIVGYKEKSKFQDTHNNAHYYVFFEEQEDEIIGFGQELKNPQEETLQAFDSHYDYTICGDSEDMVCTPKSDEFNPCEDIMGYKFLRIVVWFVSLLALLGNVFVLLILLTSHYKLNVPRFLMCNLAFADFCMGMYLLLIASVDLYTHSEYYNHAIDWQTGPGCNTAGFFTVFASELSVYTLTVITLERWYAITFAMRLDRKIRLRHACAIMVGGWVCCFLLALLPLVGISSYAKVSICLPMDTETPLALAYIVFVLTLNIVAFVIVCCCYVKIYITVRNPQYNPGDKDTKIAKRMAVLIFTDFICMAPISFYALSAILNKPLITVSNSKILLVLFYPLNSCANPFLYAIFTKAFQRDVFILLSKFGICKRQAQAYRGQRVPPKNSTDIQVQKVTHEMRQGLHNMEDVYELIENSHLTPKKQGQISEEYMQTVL
- measurement description: qHTS for antagonists of the Thyroid Stimulation Hormone Receptor: Hit Validation in Primary Screen; also: nearly all actives have a fitted effect of over 80% in size
- test parameters: TSHR-expressing cells, cAMP antagonist mode; series mostly up to 58 µM
Hit rate of the full screen: of about 1,300 compounds, about 380 (29%) were called active. Not shown: some 37% with an inconclusive outcome. Calls follow the shape of the dose curve; as a rule, active = well fitted inhibition curve with a large enough effect; inconclusive = small, poorly fitted or top-dose-only effect; inactive = flat fitted curve, though single readings scatter. This is one part of the list.
Your response should consist of one outcome taken from YES for active, NO for inactive

A selection of reference data follows.
COC(=O)Cc1c(C)[nH]n(-c2cc(Cl)cc(Cl)c2)c1=O = NO
CC(C)S(=O)(=O)C1=NSC2=NC(=O)/C(=C\c3ccc(-c4ccccc4)o3)C(=N)N21 = YES
CC(C)C1Nc2c(O)cc(Cl)c([N+](=O)[O-])c2C2C=CCC21 (configuration not stated) = YES
COC(=O)c1sc(-c2ccc(C(C)(C)C)cc2)cc1NC(=O)/C=C/C(=O)O = YES
COc1ccc(-c2cc3c(=O)n(CC(=O)NCc4cccnc4)nc(C)n3n2)cc1 = NO
O=C(NCCS(=O)(=O)N1CCN(c2ccccc2)CC1)C1CC(=O)N(c2ccccc2)C1 (configuration not stated) = NO
Cc1ccnc(OC(C(=O)O)C(OCCc2ccccc2)(c2ccccc2)c2ccccc2)n1 (configuration not stated) = NO
Cc1ccc(C(=O)Nc2cccc([N+](=O)[O-])c2)cc1S(=O)(=O)Nc1ccc(NC(=O)c2ccccc2)cc1 = NO

Q: What call does the record list for "O=c1[nH]c(C2CCN(S(=O)(=O)c3cccc(Cl)c3)CC2)nc2c1nnn2Cc1ccccc1" ?
Result: NO

Q: Can you check "Cc1cccc(NC(=O)CCN2CCN(C)CC2)c1" next?
Result: NO

Q: Can you check "Cc1ccc(O)c(N=Cc2cc(Cc3ccccc3)cc([N+](=O)[O-])c2O)c1" next?
Result: YES

Q: Can you check "CCCC(=O)Nc1nnc(CCc2ccccc2)s1" next?
Result: NO
